The following molecules are listed with their measured MIC (μg/mL) E values.
# Tested on: H. influenzae ATCC49247
# assay_overview: MIC, microdilution broth method (NCCLS)
# Type: cell-based
# particulars: 35° C., 16-20 hours

| molecule | target_desc | result_comparator | MIC (μg/mL) E / µg/mL |
| --- | --- | --- | --- |
| CCC1OC(=O)C(C)C(=O)C(C)C(OC2OC(C)CC(N(C)C)C2O)C(C)(OC(=O)NCC=Cc2ccc(-c3ccccn3)cc2)CC(C)C(=O)C(C)C2CC(=O)OC12C (centres unmarked) [Compound 15] | H. influenzae ATCC49247 | = | 8 |
| CCC1OC(=O)C(C)C(=O)C(C)C(OC2OC(C)CC(N(C)C)C2O)C(C)(OC(=O)NCc2ccccc2)CC(C)C(=O)C(C)C2CC(=O)OC12C (centres unmarked) | H. influenzae ATCC49247 | > | 16 |
| CCC1OC(=O)C(C)C(=O)C(C)C(OC2OC(C)CC(N(C)C)C2O)C(C)(OC(=O)NCC=Cc2ccc(-c3ccccc3)nc2)CC(C)C(=O)C(C)C2CC(=O)OC12C (centres unmarked) | H. influenzae ATCC49247 | = | 4 |
| CCC1OC(=O)C(C)C(=O)C(C)C(OC2OC(C)CC(N(C)C)C2O)C(C)(OC(=O)NCC=Cc2ccc(Br)cc2)CC(C)C(=O)C(C)C2CC(=O)OC12C (centres unmarked) | H. influenzae ATCC49247 | = | 4 |
| CCC1OC(=O)C(C)C(=O)C(C)C(OC2OC(C)CC(N(C)C)C2O)C(C)(OC(=O)NCc2ccc(-c3ccccn3)cc2)CC(C)C(=O)C(C)C2CC(=O)OC12C (centres unmarked) | H. influenzae ATCC49247 | = | 8 |

---

The compounds listed here are annotated with their MIC.
# Tested on: E. coli OC2605

| compound | target_desc | MIC |
| --- | --- | --- |
| CC[C@H]1OC(=O)[C@H](C)C(=O)[C@H](C)[C@@H](OC2O[C@H](C)C[C@H](N(C)C)[C@H]2O)[C@](C)(OC(=O)NC/C=C/c2cncc3ccccc23)C[C@@H](C)C(=O)C(C)C2CC(=O)O[C@@]21C (stereo partly shown) [Compound 30] | E. coli OC2605 | 16 µg/mL |
| CC[C@H]1OC(=O)[C@H](C)C(=O)[C@H](C)[C@@H](OC2O[C@H](C)C[C@H](N(C)C)[C@H]2O)[C@](C)(OC(=O)NC/C=C/c2cn(-c3cnccn3)cn2)C[C@@H](C)C(=O)C(C)C2CC(=O)O[C@@]21C (stereo partly shown) [Compound 17] | E. coli OC2605 | > 16 µg/mL |
| CC[C@H]1OC(=O)[C@H](C)C(=O)[C@H](C)[C@@H](OC2O[C@H](C)C[C@H](N(C)C)[C@H]2O)[C@](C)(OC(=O)NC/C=C/c2ccc(-c3ncccn3)cc2)C[C@@H](C)C(=O)C(C)C2CC(=O)O[C@@]21C (stereo partly shown) [Compound 7] | E. coli OC2605 | > 16 µg/mL |
| CC[C@H]1OC(=O)[C@H](C)C(=O)[C@H](C)[C@@H](OC2O[C@H](C)C[C@H](N(C)C)[C@H]2O)[C@](C)(OC(=O)NC/C=C/c2cn(-c3ncccn3)cn2)C[C@@H](C)C(=O)C(C)C2CC(=O)O[C@@]21C (stereo partly shown) [Compound 37] | E. coli OC2605 | > 16 µg/mL |

---

# Tested on: H. influenzae ATCC49247
# assay_overview: MIC, microdilution broth method (NCCLS)
# Type: cell-based
# particulars: 35° C., 16-20 hours
Below is a list of entries, each paired with its recorded MIC (μg/mL) E value.

| compound | target_desc | result_comparator | MIC (μg/mL) E [µg/mL] |
| --- | --- | --- | --- |
| CCC1OC(=O)C(C)C(=O)C(C)C(OC2OC(C)CC(N(C)C)C2O)C(C)(OC(=O)NCC=Cc2cccc(-c3ccccn3)c2)CC(C)C(=O)C(C)C2CC(=O)OC12C (stereo not drawn) | H. influenzae ATCC49247 | = | 4 |
| CCC1OC(=O)C(C)C(=O)C(C)C(OC2OC(C)CC(N(C)C)C2O)C(C)(OC(=O)NCC=Cc2cccnc2)CC(C)C(=O)C(C)C2CC(=O)OC12C (stereo not drawn) | H. influenzae ATCC49247 | = | 2 |
| CCC1OC(=O)C(C)C(=O)C(C)C(OC2OC(C)CC(N(C)C)C2O)C(C)(OC(=O)NCc2ccc(C(=O)O)cc2)CC(C)C(=O)C(C)C2CC(=O)OC12C (stereo not drawn) | H. influenzae ATCC49247 | > | 16 |
